run description: Caco-2 permeability
condition info: human, Caco-2

>  <compound>
Cl.Nc1nccc2cc(CC(NC(=O)CNS(=O)(=O)c3ccc4ccccc4c3)C(=O)N3CCCCC3)ccc12 (stereo not shown)

>  <Papp A→B [×10⁻⁶ cm/s]>
1.9

$$$$

---

run description: in vitro
condition info: human, Caco-2

>  <compound>
Cc1c(C)c(S(=O)(=O)NCC(=O)NC(Cc2ccc3c(N)nccc3c2)C(=O)N2CCCCC2)c(C)c2c1OC(C)(C)CC2.Cl (stereo not shown)

>  <Papp A→B [×10⁻⁶ cm/s]>
3.7

$$$$

---

study system: Human thrombin (Homo sapiens, UniProt P00734)
Counter-ions that a name gives are not always drawn.
// returns F unless IC50 is strictly below 1 µM, in which case T

>  <compound>
Cc1c(C)c(S(=O)(=O)NNC(=O)NC(Cc2ccc3c(N)nccc3c2)C(=O)N2CCCCC2)c(C)c2c1OC(C)(C)CC2 (stereo not drawn) [Example 10, hydrochloride]

>  <category>
F

$$$$
>  <compound>
Nc1nccc2cc(CC(NC(=O)[C@H](CO)NS(=O)(=O)c3ccc4ccccc4c3)C(=O)N3CCCCC3)ccc12 (stereo partly drawn) [Example 7, hydrochloride]

>  <category>
F

$$$$
>  <compound>
Cc1c(C)c(S(=O)(=O)NCC(=O)NC(Cc2ccc3c(N)nccc3c2)C(=O)N2CCCCC2)c(C)c2c1OC(C)(C)CC2.Cl (stereo not drawn) [Example 5, hydrochloride]

>  <category>
F

$$$$
>  <compound>
CC1CCN(C(=O)C(Cc2cc3c(N)nccc3s2)NS(=O)(=O)c2ccc3oc4ccccc4c3c2)CC1 (stereo not drawn) [Example 32, hydrochloride]

>  <category>
F

$$$$
>  <compound>
CC1CCN(C(=O)C(Cc2cc3c(N)nccc3s2)NS(=O)(=O)CC23CCC(CC2=O)C3(C)C)CC1 (stereo not drawn) [Example 30, hydrochloride]

>  <category>
F

$$$$
>  <compound>
COc1ccc2ccc(S(=O)(=O)NC(Cc3cc4c(N)nccc4s3)C(=O)N3CCC(C)CC3)cc2c1 (stereo not drawn) [Example 18, hydrochloride]

>  <category>
T

$$$$

Measured values drawn from patent US6797710B2 for this set.
